Target: α-glucosidase from Saccharomyces cerevisiae (EC 3.2.1.20) (Saccharomyces cerevisiae)
Construct: purchased Sigma-Aldrich
Experiment: biochemical
Settings: read-out: Inhibition rate at a concentration of 100 μM (%), 100 μM compound; p-NPG substrate
Consider the following compounds and their measured inhibition at 100 µM readings.
Experimental Readout: inhibition at 100 µM (%)

Compound	Result
O=C1Nc2ccc(F)cc2/C1=C/c1ccccn1 [Compound 3v]	3.99
O=C1Nc2ccc(F)cc2/C1=C/c1cccc(Br)c1 [Compound 3h]	31.6
O=C1Nc2ccc(F)cc2/C1=C/c1ccccc1F [Compound 3a]	7.29
O=C1Nc2ccc(F)cc2/C1=C/c1ccc[nH]1 [Compound 3u]	3.77
O=C1Nc2ccc(F)cc2/C1=C/c1ccccc1 [Compound 3q, (Z)-3-Benzylidene-5-Fluoroindolin-2-One]	10
O=C1Nc2ccc(F)cc2/C1=C/c1ccccc1C(F)(F)F [Compound 3m]	8.43
O=C1Nc2ccc(F)cc2/C1=C/c1ccc(F)cc1 [Compound 3c]	9.55
O=C1Nc2ccc(F)cc2/C1=C/c1ccc(F)cc1F [Compound 3o]	18.8

---

This section lists Ki readings for α-glucosidase from Saccharomyces cerevisiae (EC 3.2.1.20) (Saccharomyces cerevisiae).
Experimental Readout: Ki (µM)

1) O=C1Nc2ccc(F)cc2/C1=C/c1ccccc1Cl 15
2) O=C1Nc2ccc(F)cc2/C1=C/c1ccc(Cl)cc1 33.8
3) O=C1Nc2ccc(F)cc2/C1=C/c1ccc(Br)cc1 22.7

---

Target: α-glucosidase from Saccharomyces cerevisiae (EC 3.2.1.20) (Saccharomyces cerevisiae, UniProt P53341)
Construct: purchased Sigma-Aldrich
Sequence (P53341 whole entry): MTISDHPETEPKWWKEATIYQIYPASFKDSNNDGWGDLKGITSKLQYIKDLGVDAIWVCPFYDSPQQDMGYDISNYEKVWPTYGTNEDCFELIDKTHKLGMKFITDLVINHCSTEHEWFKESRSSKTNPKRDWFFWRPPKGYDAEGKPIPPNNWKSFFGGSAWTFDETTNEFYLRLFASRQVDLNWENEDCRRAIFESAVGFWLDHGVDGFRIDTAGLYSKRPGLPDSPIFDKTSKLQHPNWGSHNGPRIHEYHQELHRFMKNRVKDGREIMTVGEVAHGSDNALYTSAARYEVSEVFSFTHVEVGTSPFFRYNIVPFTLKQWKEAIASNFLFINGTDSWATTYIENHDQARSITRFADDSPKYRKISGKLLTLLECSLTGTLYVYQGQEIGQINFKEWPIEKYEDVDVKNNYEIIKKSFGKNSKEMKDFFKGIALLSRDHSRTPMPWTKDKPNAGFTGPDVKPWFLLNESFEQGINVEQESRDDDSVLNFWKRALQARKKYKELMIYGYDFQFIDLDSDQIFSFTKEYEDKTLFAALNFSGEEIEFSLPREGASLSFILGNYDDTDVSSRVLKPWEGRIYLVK
Test: biochemical
Conditions: p-NPG substrate; pH 6.8, 37°C; read-out: IC50
Consider the following molecules and their measured IC50 readings.
Experimental Readout: IC50

1. O=C1Cc2cc(F)ccc2N1 7.51 mM
2. O=C1Nc2ccc(F)cc2/C1=C/c1ccccc1C(F)(F)F > 0.1 mM

---

Consider the following molecules and their measured IC50 readings.
Target: α-glucosidase from Saccharomyces cerevisiae (EC 3.2.1.20) (Saccharomyces cerevisiae)
Construct: purchased Sigma-Aldrich
Assay: biochemical
Conditions: IC50 (μM), p-NPG substrate; pH 6.8, 37°C
Experimental Readout: IC50

Molecule	Experimental Readout	Result
O=C1Nc2ccc(F)cc2/C1=C/c1ccc(F)cc1F [Compound 3o]	IC50	> 100 µM
O=C1Nc2ccc(F)cc2/C1=C/c1cccc(Cl)c1 [Compound 3e]	IC50	> 100 µM
O=C1Nc2ccc(F)cc2/C1=C/c1ccco1 [Compound 3s]	IC50	> 100 µM
O=C1Nc2ccc(F)cc2/C1=C/c1ccc(F)cc1 [Compound 3c]	IC50	> 100 µM
O=C1Nc2ccc(F)cc2/C1=C/c1ccc(Br)cc1 [Compound 3i]	IC50	56.9 µM
COc1cccc(/C=C2\C(=O)Nc3ccc(F)cc32)c1 [Compound 3k]	IC50	> 100 µM
O=C1Nc2ccc(F)cc2/C1=C/c1cccc(F)c1 [Compound 3b]	IC50	> 100 µM
O=C1Nc2ccc(F)cc2/C1=C/c1ccc(Cl)cc1 [Compound 3f]	IC50	35.8 µM
O=C1Nc2ccc(F)cc2/C1=C/c1cccc(C(F)(F)F)c1 [Compound 3n]	IC50	96.8 µM
COc1ccccc1/C=C1\C(=O)Nc2ccc(F)cc21 [Compound 3j]	IC50	> 100 µM
O=C1Nc2ccc(F)cc2/C1=C/c1cccs1 [Compound 3t]	IC50	> 100 µM
O=C1Nc2ccc(F)cc2/C1=C/c1ccc[nH]1 [Compound 3u]	IC50	> 100 µM
O=C1Nc2ccc(F)cc2/C1=C/c1ccccc1Br [Compound 3g]	IC50	95.7 µM
O=C1Nc2ccc(F)cc2/C1=C/c1ccccc1 [Compound 3q, (Z)-3-Benzylidene-5-Fluoroindolin-2-One]	IC50	> 100 µM
O=C1Nc2ccc(F)cc2/C1=C/c1ccccn1 [Compound 3v]	IC50	> 100 µM

---

Target: α-glucosidase from Saccharomyces cerevisiae (EC 3.2.1.20) (Saccharomyces cerevisiae, UniProt P53341)
Construct: purchased Sigma-Aldrich
Assay: biochemical
Conditions: 100 μM compound; p-NPG substrate; 100 µM
# cutoff 60% applies to Inhibition rate at a concentration of 100 μM (%); >= gives fulfilled, < gives not fulfilled

1) O=C1Nc2ccc(F)cc2/C1=C/c1ccccc1Br not fulfilled
2) O=C1Nc2ccc(F)cc2/C1=C/c1ccc(Br)cc1 fulfilled
3) O=C1Nc2ccc(F)cc2/C1=C/c1ccc(Cl)cc1 fulfilled
4) O=C1Nc2ccc(F)cc2/C1=C/c1ccccc1Cl fulfilled
5) O=C1Nc2ccc(F)cc2/C1=C/c1cccc(C(F)(F)F)c1 not fulfilled

---

Target: α-glucosidase from Saccharomyces cerevisiae (EC 3.2.1.20) (Saccharomyces cerevisiae, UniProt P53341)
Construct: purchased Sigma-Aldrich
Experiment: biochemical
Details: read-out: Inhibition rate at a concentration of 100 μM (%), 100 μM compound; p-NPG substrate
Experimental Readout: inhibition at 100 µM (%)

Compound	Result
O=C1Nc2ccc(F)cc2/C1=C/c1cccc(F)c1 [Compound 3b]	5.19
O=C1Nc2ccc(F)cc2/C1=C/c1cccc(Cl)c1 [Compound 3e]	21.6
O=C1Nc2ccc(F)cc2/C1=C/c1cccs1 [Compound 3t]	5.67
O=C1Nc2ccc(F)cc2/C1=C/c1ccco1 [Compound 3s]	4.49
COc1cccc(/C=C2\C(=O)Nc3ccc(F)cc32)c1 [Compound 3k]	27.2
COc1ccc(/C=C2\C(=O)Nc3ccc(F)cc32)cc1 [Compound 3l]	15.7
COc1ccccc1/C=C1\C(=O)Nc2ccc(F)cc21 [Compound 3j]	19.2

---

Target: α-glucosidase from Saccharomyces cerevisiae (EC 3.2.1.20) (Saccharomyces cerevisiae, UniProt P53341)
Construct: purchased Sigma-Aldrich
Assay: biochemical
Details: IC50 (μM), p-NPG substrate; pH 6.8, 37°C
Consider the following compounds and their measured IC50 readings.
Experimental Readout: IC50

Compound	Result
O=C1Nc2ccc(F)cc2/C1=C/c1cccc(Br)c1 [Compound 3h]	> 100 µM
CSc1ccc(/C=C2\C(=O)Nc3ccc(F)cc32)cc1 [Compound 3r]	90.6 µM
O=C1Nc2ccc(F)cc2/C1=C/c1ccccc1Cl [Compound 3d]	49.9 µM
O=C1Nc2ccc(F)cc2/C1=C/c1ccccc1F [Compound 3a]	> 100 µM
COc1ccc(/C=C2\C(=O)Nc3ccc(F)cc32)cc1 [Compound 3l]	> 100 µM

---

Consider the following compounds and their measured melting point readings.
Experimental Readout: melting point

Compound	Result
COc1ccccc1/C=C1\C(=O)Nc2ccc(F)cc21 [Compound 3j]	227.1 to 227.8 °C
O=C1Nc2ccc(F)cc2/C1=C/c1cccc(F)c1 [Compound 3b]	191.4 to 192.2 °C
O=C1Nc2ccc(F)cc2/C1=C/c1ccccc1F [Compound 3a]	228.3 to 230.2 °C
O=C1Nc2ccc(F)cc2/C1=C/c1ccccc1C(F)(F)F [Compound 3m]	235.2 to 236.4 °C
O=C1Nc2ccc(F)cc2/C1=C/c1ccccn1 [Compound 3v]	248.5 to 251.2 °C
O=C1Nc2ccc(F)cc2/C1=C/c1ccc(Cl)cc1 [Compound 3f]	200.6 to 202.5 °C
COc1cccc(/C=C2\C(=O)Nc3ccc(F)cc32)c1 [Compound 3k]	200.1 to 202.1 °C
CSc1ccc(/C=C2\C(=O)Nc3ccc(F)cc32)cc1 [Compound 3r]	246.1 to 247.1 °C
O=C1Nc2ccc(F)cc2/C1=C/c1ccco1 [Compound 3s]	237.9 to 238.8 °C
O=C1Nc2ccc(F)cc2/C1=C/c1ccccc1Br [Compound 3g]	194.9 to 197.1 °C
O=C1Nc2ccc(F)cc2/C1=C/c1cccc(Br)c1 [Compound 3h]	222.6 to 223.8 °C
COc1ccc(/C=C2\C(=O)Nc3ccc(F)cc32)cc1 [Compound 3l]	358.8 to 359.9 °C
O=C1Nc2ccc(F)cc2/C1=C/c1ccc(F)cc1 [Compound 3c]	217 to 219.6 °C
O=C1Nc2ccc(F)cc2/C1=C/c1ccc(F)cc1F [Compound 3o]	221.1 to 224.3 °C
O=C1Nc2ccc(F)cc2/C1=C/c1ccccc1Cl [Compound 3d]	219.7 to 221.9 °C
O=C1Nc2ccc(F)cc2/C1=C/c1cccc(C(F)(F)F)c1 [Compound 3n]	199.7 to 200.5 °C
O=C1Nc2ccc(F)cc2/C1=C/c1ccc(Br)cc1 [Compound 3i]	249.3 to 251.6 °C
O=C1Nc2ccc(F)cc2/C1=C/c1cccc(Cl)c1 [Compound 3e]	237.4 to 238.9 °C

---

Biological target: α-glucosidase from Saccharomyces cerevisiae (EC 3.2.1.20) (Saccharomyces cerevisiae, UniProt P53341)
Construct: purchased Sigma-Aldrich
Test: biochemical
Conditions: read-out: Inhibition rate at a concentration of 100 μM (%), 100 μM compound; p-NPG substrate
Consider the following molecules and their measured inhibition at 100 µM readings.

Molecule	inhibition at 100 µM
O=C1Nc2ccc(F)cc2/C1=C/c1ccccc1Br [Compound 3g]	~50%
O=C1Nc2ccc(F)cc2/C1=C/c1ccc(Cl)cc1 [Compound 3f]	~90%
O=C1Nc2ccc(F)cc2/C1=C/c1cccc(C(F)(F)F)c1 [Compound 3n]	~50%
O=C1Nc2ccc(F)cc2/C1=C/c1ccccc1Cl [Compound 3d]	~90%

From: paper PMC9261963
